Data provenance: paper PMC10517971

# Measured on: human GPR61 (Homo sapiens, UniProt Q9BZJ8)
# Construct: expressed in transfected cells; host or cells: CHO-K1, transient (Fugene6)
# Sequence (Q9BZJ8 whole entry): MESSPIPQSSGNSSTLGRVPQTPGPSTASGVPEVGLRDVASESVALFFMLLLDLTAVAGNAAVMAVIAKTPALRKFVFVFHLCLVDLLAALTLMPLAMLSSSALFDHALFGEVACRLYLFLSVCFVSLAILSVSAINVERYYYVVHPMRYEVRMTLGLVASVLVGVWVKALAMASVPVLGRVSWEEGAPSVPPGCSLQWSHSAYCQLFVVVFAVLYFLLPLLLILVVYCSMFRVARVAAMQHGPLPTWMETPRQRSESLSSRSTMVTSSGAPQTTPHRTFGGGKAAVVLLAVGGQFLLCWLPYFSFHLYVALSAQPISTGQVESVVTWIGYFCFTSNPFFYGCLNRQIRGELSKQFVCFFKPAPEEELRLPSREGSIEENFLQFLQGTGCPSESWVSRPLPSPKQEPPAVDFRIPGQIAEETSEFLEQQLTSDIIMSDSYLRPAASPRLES
# Method description: Functional cAMP assay (HTRF), stable CHO TREx human GPR61 cells
# Assay type: cell-based
# Experimental parameters: stable CHO TREx cells, Supplementary Table 2
Experimental endpoint: IC50

Structure smiles: CCOc1cc(C)nc(N(CCOC)S(=O)(=O)c2ccc(NCc3c(F)cncc3F)nc2OC)n1
Measured on: human GPR61 (Homo sapiens, UniProt Q9BZJ8)
Experimental endpoint: IC50
Value: 0.021 µM

====

# Measured on: Cav1.2 (Homo sapiens, UniProt Q13936)
# Sequence (Q13936 whole entry): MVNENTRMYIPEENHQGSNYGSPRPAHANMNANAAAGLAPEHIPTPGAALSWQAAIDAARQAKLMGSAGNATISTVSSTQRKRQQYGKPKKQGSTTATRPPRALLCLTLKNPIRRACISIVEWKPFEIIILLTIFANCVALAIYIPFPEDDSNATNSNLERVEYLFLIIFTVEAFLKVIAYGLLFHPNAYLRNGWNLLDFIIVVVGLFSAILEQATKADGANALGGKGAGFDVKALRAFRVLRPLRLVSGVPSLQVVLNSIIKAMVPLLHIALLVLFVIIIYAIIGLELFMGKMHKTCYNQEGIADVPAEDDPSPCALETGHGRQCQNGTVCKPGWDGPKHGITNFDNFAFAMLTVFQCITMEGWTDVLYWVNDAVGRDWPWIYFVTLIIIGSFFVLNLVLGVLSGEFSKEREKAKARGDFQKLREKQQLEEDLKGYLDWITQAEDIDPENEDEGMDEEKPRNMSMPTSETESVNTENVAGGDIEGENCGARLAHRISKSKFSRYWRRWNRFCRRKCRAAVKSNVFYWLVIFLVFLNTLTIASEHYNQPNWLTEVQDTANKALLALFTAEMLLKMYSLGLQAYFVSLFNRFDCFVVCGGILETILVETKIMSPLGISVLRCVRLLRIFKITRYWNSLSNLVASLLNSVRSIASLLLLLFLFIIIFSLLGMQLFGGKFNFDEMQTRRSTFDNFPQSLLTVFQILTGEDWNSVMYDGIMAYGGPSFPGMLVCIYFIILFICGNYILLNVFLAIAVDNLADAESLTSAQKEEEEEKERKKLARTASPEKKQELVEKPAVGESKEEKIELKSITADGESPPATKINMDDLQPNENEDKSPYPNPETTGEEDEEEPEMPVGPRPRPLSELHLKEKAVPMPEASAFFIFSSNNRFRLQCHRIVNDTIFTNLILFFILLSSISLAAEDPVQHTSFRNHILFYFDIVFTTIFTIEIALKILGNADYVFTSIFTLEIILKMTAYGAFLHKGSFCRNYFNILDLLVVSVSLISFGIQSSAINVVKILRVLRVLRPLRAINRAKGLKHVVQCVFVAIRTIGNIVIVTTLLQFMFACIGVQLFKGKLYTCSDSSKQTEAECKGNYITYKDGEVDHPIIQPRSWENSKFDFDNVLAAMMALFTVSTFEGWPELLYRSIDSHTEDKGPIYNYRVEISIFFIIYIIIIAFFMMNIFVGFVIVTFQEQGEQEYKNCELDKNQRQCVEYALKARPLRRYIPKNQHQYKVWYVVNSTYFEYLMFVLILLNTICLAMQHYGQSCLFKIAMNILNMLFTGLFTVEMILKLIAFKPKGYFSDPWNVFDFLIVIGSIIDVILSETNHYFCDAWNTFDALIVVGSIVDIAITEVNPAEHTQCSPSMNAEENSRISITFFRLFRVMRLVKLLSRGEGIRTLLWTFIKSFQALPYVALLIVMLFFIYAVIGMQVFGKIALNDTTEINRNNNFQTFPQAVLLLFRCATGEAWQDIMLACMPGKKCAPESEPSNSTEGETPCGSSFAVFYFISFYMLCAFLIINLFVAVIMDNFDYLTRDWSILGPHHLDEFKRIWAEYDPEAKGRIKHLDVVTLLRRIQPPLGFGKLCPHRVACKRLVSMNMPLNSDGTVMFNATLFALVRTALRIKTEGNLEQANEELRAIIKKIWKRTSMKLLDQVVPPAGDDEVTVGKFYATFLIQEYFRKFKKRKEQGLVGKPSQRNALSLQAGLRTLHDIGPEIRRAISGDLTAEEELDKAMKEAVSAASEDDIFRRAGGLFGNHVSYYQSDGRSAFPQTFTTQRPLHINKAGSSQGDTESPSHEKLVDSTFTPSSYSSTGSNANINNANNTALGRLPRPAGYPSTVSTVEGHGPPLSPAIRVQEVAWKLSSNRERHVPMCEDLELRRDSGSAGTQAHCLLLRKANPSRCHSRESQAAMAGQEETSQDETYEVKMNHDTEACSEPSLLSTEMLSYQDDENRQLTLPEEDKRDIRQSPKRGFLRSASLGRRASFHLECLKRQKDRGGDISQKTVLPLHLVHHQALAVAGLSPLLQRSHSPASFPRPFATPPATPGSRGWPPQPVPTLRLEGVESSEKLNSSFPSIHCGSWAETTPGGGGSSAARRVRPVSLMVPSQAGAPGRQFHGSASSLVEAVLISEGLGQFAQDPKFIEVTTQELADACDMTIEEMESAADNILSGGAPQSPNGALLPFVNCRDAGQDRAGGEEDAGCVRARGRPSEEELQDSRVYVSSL
# Sequence (Q08289 whole entry partner): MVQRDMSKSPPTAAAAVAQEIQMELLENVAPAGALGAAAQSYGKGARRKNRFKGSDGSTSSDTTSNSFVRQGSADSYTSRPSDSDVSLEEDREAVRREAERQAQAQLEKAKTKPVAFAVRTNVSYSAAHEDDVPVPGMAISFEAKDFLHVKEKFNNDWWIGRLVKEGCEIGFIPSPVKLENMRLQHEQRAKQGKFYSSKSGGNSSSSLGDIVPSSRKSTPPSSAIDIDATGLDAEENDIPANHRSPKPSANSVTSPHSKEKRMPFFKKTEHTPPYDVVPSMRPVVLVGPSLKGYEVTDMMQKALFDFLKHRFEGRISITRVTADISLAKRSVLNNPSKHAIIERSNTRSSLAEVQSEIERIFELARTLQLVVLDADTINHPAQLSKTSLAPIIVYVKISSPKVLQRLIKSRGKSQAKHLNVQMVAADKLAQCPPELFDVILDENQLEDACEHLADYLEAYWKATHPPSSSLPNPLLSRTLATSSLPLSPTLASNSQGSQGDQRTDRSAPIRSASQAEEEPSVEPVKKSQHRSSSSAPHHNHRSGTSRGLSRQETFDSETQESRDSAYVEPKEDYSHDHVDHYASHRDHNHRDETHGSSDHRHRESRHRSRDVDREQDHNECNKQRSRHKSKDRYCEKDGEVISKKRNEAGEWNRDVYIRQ
# Sequence (P54289 25-956 partner limits assumed): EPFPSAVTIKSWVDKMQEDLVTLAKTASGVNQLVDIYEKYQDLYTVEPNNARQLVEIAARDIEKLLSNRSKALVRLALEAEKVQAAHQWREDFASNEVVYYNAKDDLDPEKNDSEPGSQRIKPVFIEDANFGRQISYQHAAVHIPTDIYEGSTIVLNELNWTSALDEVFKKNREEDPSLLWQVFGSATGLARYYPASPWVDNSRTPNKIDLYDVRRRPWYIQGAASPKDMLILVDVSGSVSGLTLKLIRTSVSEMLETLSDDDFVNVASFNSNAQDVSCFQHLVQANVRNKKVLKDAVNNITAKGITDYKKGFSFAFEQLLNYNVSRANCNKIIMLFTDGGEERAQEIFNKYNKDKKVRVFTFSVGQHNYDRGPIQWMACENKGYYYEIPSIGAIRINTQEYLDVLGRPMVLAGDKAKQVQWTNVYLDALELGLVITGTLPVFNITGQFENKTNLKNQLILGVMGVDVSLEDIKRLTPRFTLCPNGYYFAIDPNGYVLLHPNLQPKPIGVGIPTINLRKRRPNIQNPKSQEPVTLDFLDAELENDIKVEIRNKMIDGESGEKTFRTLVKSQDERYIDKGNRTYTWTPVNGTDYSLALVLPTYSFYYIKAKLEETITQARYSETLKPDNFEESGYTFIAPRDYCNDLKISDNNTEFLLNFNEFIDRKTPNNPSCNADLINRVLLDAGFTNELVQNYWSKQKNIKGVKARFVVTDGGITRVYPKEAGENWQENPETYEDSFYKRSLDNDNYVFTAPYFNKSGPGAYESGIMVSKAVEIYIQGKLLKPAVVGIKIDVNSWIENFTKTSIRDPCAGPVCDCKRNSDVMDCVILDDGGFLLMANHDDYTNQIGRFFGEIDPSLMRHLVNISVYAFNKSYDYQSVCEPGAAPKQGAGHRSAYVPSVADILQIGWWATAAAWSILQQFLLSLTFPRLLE
# Sequence (P54289 957-1103 partner limits assumed): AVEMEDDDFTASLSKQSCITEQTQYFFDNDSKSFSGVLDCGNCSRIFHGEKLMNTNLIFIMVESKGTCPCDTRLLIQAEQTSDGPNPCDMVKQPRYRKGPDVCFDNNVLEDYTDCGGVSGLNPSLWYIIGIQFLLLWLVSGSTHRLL
# Method description: cell-based
# Experimental parameters: Ion Channel Extended Protocol IC50 (nM), Period 2nd, Cav1.2, extended protocol, 2nd period
# Description: 105 hERG, Nav1.5 and Cav1.2 Ion Channel Profiling 106 Ionic curr ents wer e evalu ated in the whole-cell con figuration using the Qube384 automated planar 107 patch clamp platform (Sophion Bioscience A/S, Ballerup, Denmark). […] 123 at a rate of 0.05 Hz. Peak hERG current was measured during the ramp. […] 125 were repeated at 0.05 Hz, and Cav1.2 amplitude was measured as the peak current at 0 mV. […] 142 Patch clamp data were analyzed using Assay Software 6.4.72 (Sophion Bioscience A/S, Ballerup, […]
Experimental endpoint: IC50 (nM)

Structure smiles: CCOc1cc(C)nc(N(CCOC)S(=O)(=O)c2ccc(NCc3c(F)cncc3F)nc2OC)n1
Experimental endpoint: IC50
Value: 10700
